Biological target: BRD4 (BD1+BD2) bromodomain (Homo sapiens (Human))
Assay: BRD4 binding inhibition (AlphaScreen, GST-BRD4 vs tetraacetylated histone H4 peptide)
Details: GST-BRD4 (BD1+BD2) vs biotinylated acetyl-histone H4 peptide, AlphaScreen; read-out: BRD4 IC50
MEASURED QUANTITY: IC50 (nM)
Numbers only here, please. The scale is nM.

Answered cases to consult:
{"MOLECULE": "COc1cc2nc(NCCCCC(=O)NC(C)(C)C)c3nnc(C)n3c2cc1OC", "TGT": "BRD4 (BD1+BD2) bromodomain (Homo sapiens (Human))", "IC50 (nM)": 56}
{"MOLECULE": "COc1cc2nc(NCCCCNC(=O)NC(C)(C)C)c3nnc(C)n3c2cc1OC", "TGT": "BRD4 (BD1+BD2) bromodomain (Homo sapiens (Human))", "IC50 (nM)": 18}
{"MOLECULE": "Cc1nnc2c(NCCCCNC(=O)C(C)(C)C)nc3cc(OCCN4CCOCC4)ccc3n12", "TGT": "BRD4 (BD1+BD2) bromodomain (Homo sapiens (Human))", "IC50 (nM)": 61}
{"MOLECULE": "COc1ccc2c(c1)nc(NCCCCNC(=O)OC1CCCC1)c1nnc(C)n12", "TGT": "BRD4 (BD1+BD2) bromodomain (Homo sapiens (Human))", "IC50 (nM)": 17}
{"MOLECULE": "COCCOc1ccc2c(c1)nc(NCCCCNC(=O)C(NC(=O)OC(C)(C)C)C(C)C)c1nnc(C)n12 (centres unmarked)", "TGT": "BRD4 (BD1+BD2) bromodomain (Homo sapiens (Human))", "IC50 (nM)": 7}
{"MOLECULE": "COc1cc2nc(NCCCCNC(=O)CC(C)C)c3nnc(C)n3c2cc1NC(=O)Nc1ccccc1", "TGT": "BRD4 (BD1+BD2) bromodomain (Homo sapiens (Human))", "IC50 (nM)": 28}
{"MOLECULE": "Cc1nnc2c(NCCCCNC(=O)OC(C)(C)C)nc3ccc(C(=O)NC(C)C)cc3n12", "TGT": "BRD4 (BD1+BD2) bromodomain (Homo sapiens (Human))", "IC50 (nM)": 75}

# evaluate next
Provide only the value of recorded IC50 for COc1cc2nc(NCCCCNC(=O)OC(C)C)c3nnc(C(C)C)n3c2cc1OC 56

---

The following molecules are shown together with reported pIC50 values.
Biological target: BRD4 (BD1+BD2) bromodomain (Homo sapiens (Human), UniProt O60885)
Test: BRD4 binding inhibition (AlphaScreen, GST-BRD4 vs tetraacetylated histone H4 peptide)
Details: GST-BRD4 (BD1+BD2) vs biotinylated acetyl-histone H4 peptide, AlphaScreen; read-out: BRD4 IC50
Conceptually, pIC50 converts a concentration in mol/L into minus its log10.

Answered cases to consult:
{"COMPOUND STRUCTURE STRING": "COc1cc2nc(NCCCCC(=O)NCc3ccccc3)c3nnc(C)n3c2cc1OC", "pIC50": 7.64}
{"COMPOUND STRUCTURE STRING": "COc1cccc2c1nc(NCCCCNC(=O)OCC(C)C)c1nnc(C)n12", "pIC50": 7.47}
{"COMPOUND STRUCTURE STRING": "COc1cc2nc(NCCCCNC(=O)CC(C)C)c3nnc(C)n3c2cc1NS(=O)(=O)CC(C)C", "pIC50": 7.89}

Provide only the value of recorded pIC50 for COc1ccc2c(c1)nc(NCCCCNC(=O)CCC(C)C)c1nnc(C)n12 7.82

---

Biological target: BRD4 (BD1+BD2) bromodomain (Homo sapiens (Human), UniProt O60885)
Assay: BRD4 binding inhibition (AlphaScreen, GST-BRD4 vs tetraacetylated histone H4 peptide)
Settings: GST-BRD4 (BD1+BD2) vs biotinylated acetyl-histone H4 peptide, AlphaScreen; read-out: BRD4 IC50
Structures can show the parent of a compound that is named as a salt.
Label true (1) when IC50 is strictly below 30 nM; otherwise label false (0).

{"COMPOUND": "Cc1nnc2c(NCCCCC(=O)NCC(C)C)nc3ccccc3n12", "DISCRETE LABEL": "false (0)"}

Does Cc1nnc2c(NCCCCNC(=O)c3ccccc3)nc3cc(OC(F)(F)F)ccc3n12 have IC50 strictly under 30 nM? false (0)

Does COc1cc2nc(NCCCCNC(=O)CC(C)C)c3nnc(C)n3c2cc1C have IC50 strictly under 30 nM? false (0)

Does Cc1nnc2c(NCCCCOC(=O)c3ccccc3)nc3ccccc3n12 have IC50 strictly under 30 nM? false (0)

Does Cc1nnc2c(NCCCCNC(=O)[C@@H](NC(=O)OC(C)C)C(C)C)nc3cc(N4C[C@@H](C)O[C@@H](C)C4)ccc3n12 have IC50 strictly under 30 nM? true (1)

Does COc1ccc2c(c1)nc(NCCCCNC(=O)C(C)(C)O)c1nnc(C)n12 have IC50 strictly under 30 nM? true (1)

Does Cc1nnc2c(NCCCCNC(=O)CC(C)C)nc3cc(OCCN4CCOCC4)ccc3n12 have IC50 strictly under 30 nM? false (0)

Does Cc1nnc2c(NCCCCNC(=O)CC(C)C)nc3cc(OC(C)C)ccc3n12 have IC50 strictly under 30 nM? true (1)

Does Cc1nnc2c(NCCCCNC(=O)CC(C)C)nc3ccccc3n12 have IC50 strictly under 30 nM? true (1)

Does Cc1noc(C)c1-c1ccc2nc(NCCCCNC(=O)[C@H](O)C(C)C)c3nnc(C)n3c2c1 have IC50 strictly under 30 nM? true (1)

Does CCc1nnc2c(NCCCCNC(=O)OC(C)C)nc3cc(OC)c(OC)cc3n12 have IC50 strictly under 30 nM? true (1)

Does COCC(=O)NCCCCNc1nc2cc(OC)c(OC)cc2n2c(C)nnc12 have IC50 strictly under 30 nM? true (1)

Does COc1cc(C)c2nc(NCCCCNC(=O)OC(C)(C)C)c3nnc(C)n3c2c1 have IC50 strictly under 30 nM? true (1)

Does COc1c(C)ccc2c1nc(NCCCCNC(=O)[C@@H](O)C(C)C)c1nnc(C)n12 have IC50 strictly under 30 nM? true (1)

Does Cc1nnc2c(NCCCCNC(=O)[C@@H](N)C(C)C)nc3cc(N4CCOCC4)ccc3n12 [Example 503, hydrochloride] have IC50 strictly under 30 nM? false (0)

Does Cc1nnc2c(NCCCCNC(=O)OC3CCCC3)nc3cc(OCCN4CCOCC4)ccc3n12 have IC50 strictly under 30 nM? false (0)

Does Cc1nnc2c(NCCCCNC(=O)OC(C)(C)C)nc3cc(C(=O)NCc4ccc(Cl)cc4)ccc3n12 have IC50 strictly under 30 nM? false (0)

---

Biological target: BRD4 (BD1+BD2) bromodomain (Homo sapiens (Human), UniProt O60885)
Assay: BRD4 binding inhibition (AlphaScreen, GST-BRD4 vs tetraacetylated histone H4 peptide)
Details: GST-BRD4 (BD1+BD2) vs biotinylated acetyl-histone H4 peptide, AlphaScreen; read-out: BRD4 IC50
Label Fulfilled when IC50 is strictly below 20 nM; otherwise label Not fulfilled.

Example results:
{"MOLECULE": "COCCOc1ccc2c(c1)nc(NCCCCNC(=O)CC(C)(C)C)c1nnc(C)n12", "DISCRETE LABEL": "Fulfilled"}
{"MOLECULE": "Cc1nnc2c(NCCCCNC(=O)Cc3cccs3)nc3cc(OCCN4CCOCC4)ccc3n12", "DISCRETE LABEL": "Not fulfilled"}
{"MOLECULE": "COc1cc2nc(NCCCCNC(=O)C3CC3)c3nnc(C)n3c2cc1OC", "DISCRETE LABEL": "Not fulfilled"}
{"MOLECULE": "COCCOc1ccc2c(c1)nc(NCCCCNC(=O)OCC(C)C)c1nnc(C)n12", "DISCRETE LABEL": "Fulfilled"}
{"MOLECULE": "CCNC(=O)NCCCCNc1nc2cc(OCCOC)ccc2n2c(C)nnc12", "DISCRETE LABEL": "Not fulfilled"}
{"MOLECULE": "CCC(C)CC(=O)NCCCCNc1nc2cc(N3CCOCC3)ccc2n2c(C)nnc12 (stereo not drawn)", "DISCRETE LABEL": "Fulfilled"}

Does COc1cc2c(cc1C)nc(NCCCCNC(=O)[C@H](O)C(C)C)c1nnc(C)n12 have IC50 strictly under 20 nM? Not fulfilled

Does CCC(C)C(=O)NCCCCNc1nc2cc(OC)c(OC)cc2n2c(C)nnc12 (stereo not drawn) have IC50 strictly under 20 nM? Not fulfilled

Does Cc1nnc2c(NCCCCNC(=O)OC(C)(C)C)nc3ccc(C(N)=O)cc3n12 have IC50 strictly under 20 nM? Not fulfilled

Does CCC(F)(F)C(=O)NCCCCNc1nc2cc(OCCOC)ccc2n2c(C)nnc12 have IC50 strictly under 20 nM? Fulfilled

Does Cc1nnc2c(NCCCCNC(=O)[C@@H](O)C(C)C)nc3cc(OCCN4CCOCC4)ccc3n12 have IC50 strictly under 20 nM? Fulfilled

---

Biological target: BRD4 (BD1+BD2) bromodomain (Homo sapiens (Human), UniProt O60885)
Experiment: BRD4 binding inhibition (AlphaScreen, GST-BRD4 vs tetraacetylated histone H4 peptide)
Conditions: GST-BRD4 (BD1+BD2) vs biotinylated acetyl-histone H4 peptide, AlphaScreen; read-out: BRD4 IC50
pIC50: −log10 of the molar value.
Tag: label 1 if measured pIC50 is not below 8, label 0 if it is.

{"COMPOUND": "Cc1nnc2c(NCCCCCC(=O)NC(C)C)nc3ccccc3n12 [Example 661]", "DISCRETE LABEL": "label 0"}
{"COMPOUND": "COc1ccc2c(c1)nc(NCCCCNC(=O)[C@H](C(C)C)N(C)C)c1nnc(C)n12 [Example 313]", "DISCRETE LABEL": "label 0"}
{"COMPOUND": "Cc1nnc2c(NCCCCNC(=O)OC(C)(C)C)nc3cc(NC(=O)C(C)C)ccc3n12 [Example 246]", "DISCRETE LABEL": "label 0"}

Now look at this one.
Exam item: decide whether the reported pIC50 for Cc1nnc2c(NCCCCNC(=O)CC(C)C)nc3cc(-c4nc5ccccc5n4C)ccc3n12 [Example 222] is at least 8. label 1
